ASSAY PROTOCOL: total protein half-life in vivo (active degradation + dilution); higher = more stable protein
SETUP CONDITIONS: wild type E. coli NCM3722; growth: N-lim chemostat; doubling time 6 h

{"columns": ["SEQUENCE CHAIN", "READOUT UNITS", "total protein half-life in vivo"],
 "data": [
  ["MNKSQLIDKIAAGADISKAAAGRALDAIIASVTESLKEGDDVALVGFGTFAVKERAARTGRNPQTGKEITIAAAKVPSFRAGKALKDAVN [P0ACF4]", "h", 5.04],
  ["MKITLSKRIGLLAILLPCALALSTTVHAETNKLVIESGDSAQSRQHAAMEKEQWNDTRNLRQKVNKRTEKEWDKADAAFDNRDKCEQSANINAYWEPNTLRCLDRRTGRVITP", "h", 4.93],
  ["MAGINLNKKLWRIPQQGMVRGVCAGIANYFDVPVKLVRILVVLSIFFGLALFTLVAYIILSFALDPMPDNMAFGEQLPSSSELLDEVDRELAASETRLREMERYVTSDTFTLRSRFRQL [P0AFN2]", "h", 4.86]
]}

---

We begin with a simple list: items and their reported total protein half-life in vivo.
ASSAY PROTOCOL: total protein half-life in vivo (active degradation + dilution); higher = more stable protein
SETUP CONDITIONS: wild type E. coli NCM3722; growth: N-lim chemostat; doubling time 12 h
PARAMETER: total protein half-life in vivo (h)

{"columns": ["SEQUENCE CHAIN", "READOUT UNITS", "MEASUREMENT"],
 "data": [
  ["MTDVLLCVGNSMMGDDGAGPLLAEKCAAAPKGNWVVIDGGSAPENDIVAIRELRPTRLLIVDATDMGLNPGEIRIIDPDDIAEMFMMTTHNMPLNYLIDQLKEDIGEVIFLGIQPDIVGFYYPMTQPIKDAVETVYQRLEGWEGNGGFAQLAVEEE [P0AEV9]", "h", 6.23],
  ["MKFELDTTDGRARRGRLVFDRGVVETPCFMPVGTYGTVKGMTPEEVEATGAQIILGNTFHLWLRPGQEIMKLHGDLHDFMQWKGPILTDSGGFQVFSLGDIRKITEQGVHFRNPINGDPIFLDPEKSMEIQYDLGSDIVMIFDECTPYPADWDYAKRSMEMSLRWAKRSRERFDSLGNKNALFGIIQGSVYEDLRDISVKGLVDIGFDGYAVGGLAVGEPKADMHRILEHVCPQIPADKPRYLMGVGKPEDLVEGVRRGIDMFDCVMPTRNARNGHLFVTDGVVKIRNAKYKSDTGPLDPECDCYTCRNYSRAYLHHLDRCNEILGARLNTIHNLRYYQRLMAGLRKAIEEGKLESFVTDFYQRQGREVPPLNVD [P0A847]", "h", 9.05],
  ["MTDNTYQPAKVWTWDKSAGGAFANINRPVSGPTHEKTLPVGKHPLQLYSLGTPNGQKVTIMLEELLALGVTGAEYDAWLIRIGDGDQFSSGFVEVNPNSKIPALRDHTHNPPIRVFESGSILLYLAEKFGYFLPQDLAKRTETMNWLFWLQGAAPFLGGGFGHFYHYAPVKIEYAINRFTMEAKRLLDVLDKQLAQHKFVAGDEYTIADMAIWPWFGNVVLGGVYDAAEFLDAGSYKHVQRWAKEVGERPAVKRGRIVNRTNGPLNEQLHERHDASDFETNTEDKRQG", "h", 9.72],
  ["MQDRNFDDIAEKFSRNIYGTTKGQLRQAILWQDLDRVLAEMGPQKLRVLDAGGGEGQTAIKMAERGHQVILCDLSAQMIDRAKQAAEAKGVSDNMQFIHCAAQDVASHLETPVDLILFHAVLEWVADPRSVLQTLWSVLRPGGVLSLMFYNAHGLLMHNMVAGNFDYVQAGMPKKKKRTLSPDYPRDPAQVYLWLEEAGWQIMGKTGVRVFHDYLREKHQQRDCYEALLELETRYCRQEPYITLGRYIHVTARKPQSKDKV", "h", 7.11]
]}

---

ASSAY PROTOCOL: total protein half-life in vivo (active degradation + dilution); higher = more stable protein
SETUP CONDITIONS: wild type E. coli NCM3722; growth: P-lim chemostat; doubling time 6 h
PARAMETER: total protein half-life in vivo

{"columns": ["SEQUENCE CHAIN", "PARAMETER", "MEASUREMENT"],
 "data": [
  ["MLELNFSQTLGNHCLTINETLPANGITAIFGVSGAGKTSLINAISGLTRPQKGRIVLNGRVLNDAEKGICLTPEKRRVGYVFQDARLFPHYKVRGNLRYGMSKSMVDQFDKLVALLGIEPLLDRLPGSLSGGEKQRVAIGRALLTAPELLLLDEPLASLDIPRKRELLPYLQRLTREINIPMLYVSHSLDEILHLADRVMVLENGQVKAFGALEEVWGSSVMNPWLPKEQQSSILKVTVLEHHPHYAMTALALGDQHLWVNKLDEPLQAALRIRIQASDVSLVLQPPQQTSIRNVLRAKVVNSYDDNGQVEVELEVGGKTLWARISPWARDELAIKPGLWLYAQIKSVSITA", "total protein half-life in vivo", "6.12 h"],
  ["MVLMIVSGRSGSGKSVALRALEDMGFYCVDNLPVVLLPDLARTLADREISAAVSIDVRNMPESPEIFEQAMSNLPDAFSPQLLFLDADRNTLIRRYSDTRRLHPLSSKNLSLESAIDKESDLLEPLRSRADLIVDTSEMSVHELAEMLRTRLLGKRERELTMVFESFGFKHGIPIDADYVFDVRFLPNPHWDPKLRPMTGLDKPVAAFLDRHTEVHNFIYQTRSYLELWLPMLETNNRSYLTVAIGCTGGKHRSVYIAEQLADYFRSRGKNVQSRHRTLEKRKP [P0A894]", "total protein half-life in vivo", "5.95 h"],
  ["MHVKYLAGIVGAALLMAGCSSSNELSAAGQSVRIVDEQPGAECQLIGTATGKQSNWLSGQHGEEGGSMRGAANDLRNQAAAMGGNVIYGISSPSQGMLSSFVPTDSQIIGQVYKCPN [P0AF70]", "total protein half-life in vivo", "6.01 h"],
  ["MLYVIYAQDKADSLEKRLSVRPAHLARLQLLHDEGRLLTAGPMPAVDSNDPGAAGFTGSTVIAEFESLEAAQAWADADPYVAAGVYEHVSVKPFKKVF [P0AB55]", "total protein half-life in vivo", "6 h"]
]}

---

ASSAY PROTOCOL: total protein half-life in vivo (active degradation + dilution); higher = more stable protein
SETUP CONDITIONS: E. coli NCM3722 delta-clpP; growth: N-lim chemostat; doubling time 6 h
Outcome label depends on total protein half-life in vivo relative to 6 h: at/above gives MET, below gives NOT MET.

{"columns": ["SEQUENCE CHAIN", "CATEGORY"],
 "data": [
  ["MKKIAITCALLSSLVASSVWADAASDLKSRLDKVSSFHASFTQKVTDGSGAAVQEGQGDLWVKRPNLFNWHMTQPDESILVSDGKTLWFYNPFVEQATATWLKDATGNTPFMLIARNQSSDWQQYNIKQNGDDFVLTPKASNGNLKQFTINVGRDGTIHQFSAVEQDDQRSSYQLKSQQNGAVDAAKFTFTPPQGVTVDDQRK", "NOT MET"],
  ["MKILVIGPSWVGDMMMSQSLYRTLQARYPQAIIDVMAPAWCRPLLSRMPEVNEAIPMPLGHGALEIGERRKLGHSLREKRYDRAYVLPNSFKSALVPFFAGIPHRTGWRGEMRYGLLNDVRVLDKEAWPLMVERYIALAYDKGIMRTAQDLPQPLLWPQLQVSEGEKSYTCNQFSLSSERPMIGFCPGAEFGPAKRWPHYHYAELAKQLIDEGYQVVLFGSAKDHEAGNEILAALNTEQQAWCRNLAGETQLDQAVILIAACKAIVTNDSGLMHVAAALNRPLVALYGPSSPDFTPPLSHKARVIRLITGYHKVRKGDAAEGYHQSLIDITPQRVLEELNALLLQEEA", "MET"],
  ["MSALNKKSFLTYLKEGGIYVVLLVLLAIIIFQDPTFLSLLNLSNILTQSSVRIIIALGVAGLIVTQGTDLSAGRQVGLAAVVAATLLQSMDNANKVFPEMATMPIALVILIVCAIGAVIGLINGLIIAYLNVTPFITTLGTMIIVYGINSLYYDFVGASPISGFDSGFSTFAQGFVALGSFRLSYITFYALIAVAFVWVLWNKTRFGKNIFAIGGNPEAAKVSGVNVGLNLLMIYALSGVFYAFGGMLEAGRIGSATNNLGFMYELDAIAACVVGGVSFSGGVGTVIGVVTGVIIFTVINYGLTYIGVNPYWQYIIKGAIIIFAVALDSLKYARKK", "MET"],
  ["MKLGFIGLGIMGTPMAINLARAGHQLHVTTIGPVADELLSLGAVSVETARQVTEASDIIFIMVPDTPQVEEVLFGENGCTKASLKGKTIVDMSSISPIETKRFARQVNELGGDYLDAPVSGGEIGAREGTLSIMVGGDEAVFERVKPLFELLGKNITLVGGNGDGQTCKVANQIIVALNIEAVSEALLFASKAGADPVRVRQALMGGFASSRILEVHGERMIKRTFNPGFKIALHQKDLNLALQSAKALALNLPNTATCQELFNTCAANGGSQLDHSALVQALELMANHKLA", "NOT MET"],
  ["MAEVTQLKRYDARPINWGKWFLIGIGMLVSAFILLVPMIYIFVQAFSKGLMPVLQNLADPDMLHAIWLTVMIALIAVPVNLVFGILLAWLVTRFNFPGRQLLLTLLDIPFAVSPVVAGLVYLLFYGSNGPLGGWLDEHNLQIMFSWPGMVLVTIFVTCPFVVRELVPVMLSQGSQEDEAAILLGASGWQMFRRVTLPNIRWALLYGVVLTNARAIGEFGAVSVVSGSIRGETLSLPLQIELLEQDYNTVGSFTAAALLTLMAIITLFLKSMLQWRLENQEKRAQQEEHHEH [P0AEB0]", "NOT MET"],
  ["MRVLVVEDNALLRHHLKVQIQDAGHQVDDAEDAKEADYYLNEHIPDIAIVDLGLPDEDGLSLIRRWRSNDVSLPILVLTARESWQDKVEVLSAGADDYVTKPFHIEEVMARMQALMRRNSGLASQVISLPPFQVDLSRRELSINDEVIKLTAFEYTIMETLIRNNGKVVSKDSLMLQLYPDAELRESHTIDVLMGRLRKKIQAQYPQEVITTVRGQGYLFELR", "NOT MET"]
]}
